tested on: NCI-H1975; test: Antiproliferative activity against human NCI-H1975 cells transfected with siRNA assessed as inhibition of cell growth incubated for 24 hrs by CCK-8 assay; assay type: functional, cell-based; details: NCI-H1975, 24 h
Reported Metric: pIC50
In plain terms, pIC50 is the concentration in mol/L turned into minus its base-10 logarithm.

Exercise: Field request: pIC50 | item: COC(=O)[C@H](CS[C@H](CC=C(C)C)C1=CC(=O)c2c(O)ccc(O)c2C1=O)NC(=O)CCCC[C@@H]1CCSC(c2ccccc2C)S1 (stereo partly specified)
Key: 5.46

----------
molecular target: [Pyruvate dehydrogenase (acetyl-transferring)] kinase isozyme 1, mitochondrial (Homo sapiens, UniProt Q15118); assay: Binding affinity to PDK1 (unknown origin) assessed as dissociation constant associated for 60 secs and dissociated for 90 secs by bio-layer interferometry analysis
Sequence (Q15118 whole entry): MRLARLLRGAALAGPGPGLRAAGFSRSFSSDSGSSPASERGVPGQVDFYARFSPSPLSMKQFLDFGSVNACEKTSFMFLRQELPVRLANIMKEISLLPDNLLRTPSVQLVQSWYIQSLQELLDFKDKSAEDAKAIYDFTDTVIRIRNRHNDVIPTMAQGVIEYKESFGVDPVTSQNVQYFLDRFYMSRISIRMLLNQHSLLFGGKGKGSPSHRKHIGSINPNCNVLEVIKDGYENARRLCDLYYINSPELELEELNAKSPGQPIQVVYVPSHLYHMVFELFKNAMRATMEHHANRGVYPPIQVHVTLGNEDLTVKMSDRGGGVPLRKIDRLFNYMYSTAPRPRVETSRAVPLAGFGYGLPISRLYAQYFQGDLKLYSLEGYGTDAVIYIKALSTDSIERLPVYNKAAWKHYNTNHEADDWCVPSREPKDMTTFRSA
Reported Metric: Kd (µM)
Report only the number, with the unit µM understood.

Exercise: Field request: Kd | item: COC(=O)[C@H](CS[C@H](CC=C(C)C)C1=CC(=O)c2c(O)ccc(O)c2C1=O)NC(=O)CCCC[C@@H]1CCSC(c2ccccc2C)S1 (stereo partly specified)
Key: 12.1

----------
target: UniProtKB P14618
Sequence (P14618 whole entry): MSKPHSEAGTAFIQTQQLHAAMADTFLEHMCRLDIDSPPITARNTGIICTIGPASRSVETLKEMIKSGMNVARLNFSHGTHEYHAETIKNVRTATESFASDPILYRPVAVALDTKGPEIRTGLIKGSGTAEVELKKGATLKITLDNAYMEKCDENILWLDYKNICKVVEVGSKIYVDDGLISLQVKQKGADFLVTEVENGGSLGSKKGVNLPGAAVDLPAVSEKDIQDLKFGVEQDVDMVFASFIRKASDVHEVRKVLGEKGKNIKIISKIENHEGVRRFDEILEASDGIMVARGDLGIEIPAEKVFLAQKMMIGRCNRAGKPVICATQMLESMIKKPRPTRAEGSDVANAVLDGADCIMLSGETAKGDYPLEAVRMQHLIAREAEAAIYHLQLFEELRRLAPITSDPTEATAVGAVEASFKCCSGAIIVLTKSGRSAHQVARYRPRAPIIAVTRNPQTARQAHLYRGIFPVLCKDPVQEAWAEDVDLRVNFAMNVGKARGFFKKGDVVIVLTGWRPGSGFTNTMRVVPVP
Reported Metric: Kd (µM)
Report only the number, with the unit µM understood.

Exercise: Request: Kd, test system UniProtKB P14618, entry COC(=O)[C@H](CS[C@H](CC=C(C)C)C1=CC(=O)c2c(O)ccc(O)c2C1=O)NC(=O)CCCC[C@@H]1CCSC(c2ccccc2C)S1 (stereo partly specified)
Key: 28

----------
system: NCI-H1299; assay: cells; assay type: functional, cell-based; details: Homo sapiens, NCI-H1299, 24 h
Description: Antiproliferative activity against human NCI-H1299 cells assessed as inhibition of cell growth incubated for 24 hrs by CCK-8 assay
Reported Metric: IC50 (µM)
Report only the number, with the unit µM understood.

Reference set (2 entries):
# Compound, Experimental Target, Units Label, IC50
rows = [
    ("COC(=O)[C@H](CS[C@H](CC=C(C)C)C1=CC(=O)c2c(O)ccc(O)c2C1=O)NC(=O)CCCC[C@@H]1CCSC(c2ccc(OCc3ccccc3)cc2)S1 (stereo partly drawn)", "NCI-H1299", "µM", 24.8),
    ("COC(=O)[C@H](CS[C@H](CC=C(C)C)C1=CC(=O)c2c(O)ccc(O)c2C1=O)NC(=O)CCCC[C@@H]1CCSC(c2ccccc2)S1 (stereo partly drawn)", "NCI-H1299", "µM", 6.33),
]

Now look at this one.
Exercise: Field request: IC50 | item: COC(=O)[C@H](CS[C@H](CC=C(C)C)C1=CC(=O)c2c(O)ccc(O)c2C1=O)NC(=O)CCCC[C@@H]1CCSC(c2ccc(Cl)cc2)S1 (stereo partly drawn)
Key: 8.26

----------
system: NCI-H1299; test: cells; assay type: functional, cell-based; conditions: Homo sapiens, NCI-H1299, 24 h
Reported Metric: IC50 (µM)
Report only the number, with the unit µM understood.

Reference set (5 entries):
# Compound, Experimental Target, Units Label, IC50
data = [
    ("COC(=O)[C@H](CS[C@H](CC=C(C)C)C1=CC(=O)c2c(O)ccc(O)c2C1=O)NC(=O)CCCC[C@@H]1CCSC(c2ccc(C(C)C)cc2)S1 (stereo partly drawn)", "NCI-H1299", "µM", 4.93),
    ("COC(=O)[C@H](CS[C@H](CC=C(C)C)C1=CC(=O)c2c(O)ccc(O)c2C1=O)NC(=O)CCCC[C@@H]1CCSC(c2ccccc2C)S1 (stereo partly drawn)", "NCI-H1299", "µM", 5.48),
    ("COC(=O)[C@H](CS[C@H](CC=C(C)C)C1=CC(=O)c2c(O)ccc(O)c2C1=O)NC(=O)CCCC[C@@H]1CCSC(c2ccc(C)cc2)S1 (stereo partly drawn)", "NCI-H1299", "µM", 10.5),
    ("COC(=O)[C@H](CS[C@H](CC=C(C)C)C1=CC(=O)c2c(O)ccc(O)c2C1=O)NC(=O)CCCC[C@@H]1CCSC(C2CCCCC2)S1 (stereo partly drawn)", "NCI-H1299", "µM", 11.6),
    ("COC(=O)[C@H](CS[C@H](CC=C(C)C)C1=CC(=O)c2c(O)ccc(O)c2C1=O)NC(=O)CCCC[C@@H]1CCSC(c2cccc(Br)c2)S1 (stereo partly drawn)", "NCI-H1299", "µM", 3.53),
]

Exercise: Field request: IC50 | item: COC(=O)[C@H](CS[C@H](CC=C(C)C)C1=CC(=O)c2c(O)ccc(O)c2C1=O)NC(=O)CCCC[C@@H]1CCSC(c2ccc(C(F)(F)F)cc2)S1 (stereo partly drawn)
Key: 4.58

Exercise: Field request: IC50 | item: COC(=O)[C@H](CS[C@H](CC=C(C)C)C1=CC(=O)c2c(O)ccc(O)c2C1=O)NC(=O)CCCC[C@@H]1CCSC(c2cccc(C(F)(F)F)c2)S1 (stereo partly drawn)
Key: 3.53

----------
system: NCI-H1975; assay: cells; type: functional, cell-based; conditions: Homo sapiens, NCI-H1975, 24 h
Description: Antiproliferative activity against human NCI-H1975 cells assessed as inhibition of cell growth incubated for 24 hrs by CCK-8 assay
Quick rule for you: IC50 under 4 µM gets Yes, anything else gets No.

# Compound, Label Class
data = [
    ("COC(=O)[C@H](CS[C@H](CC=C(C)C)C1=CC(=O)c2c(O)ccc(O)c2C1=O)NC(=O)CCCC[C@@H]1CCSC(c2ccc(Cl)cc2)S1 (stereo not given in full)", "No"),
]

Exercise: Consider the compound COC(=O)[C@H](CS[C@H](CC=C(C)C)C1=CC(=O)c2c(O)ccc(O)c2C1=O)NC(=O)CCCC[C@@H]1CCSC(c2ccccc2C)S1 (stereo not given in full) . Is its IC50 strictly less than 4 µM?
Key: Yes

Exercise: Consider the compound COC(=O)[C@H](CS[C@H](CC=C(C)C)C1=CC(=O)c2c(O)ccc(O)c2C1=O)NC(=O)CCCC[C@@H]1CCSC(c2ccc(C)cc2)S1 (stereo not given in full) . Is its IC50 strictly less than 4 µM?
Key: No

Exercise: Consider the compound COC(=O)[C@H](CS[C@H](CC=C(C)C)C1=CC(=O)c2c(O)ccc(O)c2C1=O)NC(=O)CCCC[C@@H]1CCSC(c2cccc(C(F)(F)F)c2)S1 (stereo not given in full) . Is its IC50 strictly less than 4 µM?
Key: Yes

Exercise: Consider the compound COC(=O)[C@H](CS[C@H](CC=C(C)C)C1=CC(=O)c2c(O)ccc(O)c2C1=O)NC(=O)CCCC[C@@H]1CCSC(c2ccc(C(F)(F)F)cc2)S1 (stereo not given in full) . Is its IC50 strictly less than 4 µM?
Key: Yes

----------
system: A549; experiment: cells; format: functional, cell-based; conditions: Homo sapiens, A549, 24 h
Description: Antiproliferative activity against human A549 cells assessed as inhibition of cell growth incubated for 24 hrs by CCK-8 assay
Reported Metric: pIC50
In plain terms, pIC50 is the concentration in mol/L turned into minus its base-10 logarithm.

Reference set (3 entries):
# Compound, Experimental Target, Meas Value
measured = [
    ("COC(=O)[C@H](CS[C@H](CC=C(C)C)C1=CC(=O)c2c(O)ccc(O)c2C1=O)NC(=O)CCCC[C@@H]1CCSC(c2cccc(Br)c2)S1 (some centres undefined)", "A549", 4.82),
    ("COC(=O)[C@H](CS[C@H](CC=C(C)C)C1=CC(=O)c2c(O)ccc(O)c2C1=O)NC(=O)CCCC[C@@H]1CCSC(c2ccc(C)cc2)S1 (some centres undefined)", "A549", 4.91),
    ("COC(=O)[C@H](CS[C@H](CC=C(C)C)C1=CC(=O)c2c(O)ccc(O)c2C1=O)NC(=O)CCCC[C@@H]1CCSC(c2ccc(OCc3ccccc3)cc2)S1 (some centres undefined)", "A549", 4.88),
]

Exercise: Request: pIC50, test system A549, entry COC(=O)[C@H](CS[C@H](CC=C(C)C)C1=CC(=O)c2c(O)ccc(O)c2C1=O)NC(=O)CCCC[C@@H]1CCSC(c2ccc(OC)cc2)S1 (some centres undefined)
Key: 5.63

----------
system: NCI-H1299; assay: cells; assay type: functional, cell-based; details: Homo sapiens, NCI-H1299, 24 h
Measured IC50, listed per entry for reference.
Report only the number, with the unit µM understood.

Reference set (5 entries):
# Compound, IC50 (µM)
rows = [
    ("COC(=O)[C@H](CS[C@H](CC=C(C)C)C1=CC(=O)c2c(O)ccc(O)c2C1=O)NC(=O)CCCC[C@@H]1CCSC(c2ccccc2Cl)S1 (stereo partly specified)", 6.73),
    ("COC(=O)[C@H](CS[C@H](CC=C(C)C)C1=CC(=O)c2c(O)ccc(O)c2C1=O)NC(=O)CCCC[C@@H]1CCSC(c2ccc(Br)cc2)S1 (stereo partly specified)", 3.27),
    ("COC(=O)[C@H](CS[C@H](CC=C(C)C)C1=CC(=O)c2c(O)ccc(O)c2C1=O)NC(=O)CCCC[C@@H]1CCSC(c2cccc(Cl)c2Cl)S1 (stereo partly specified)", 4.5),
    ("CC(C)=CC[C@@H](O)C1=CC(=O)c2c(O)ccc(O)c2C1=O [SHIKONIN]", 3.95),
    ("COC(=O)[C@H](CS[C@H](CC=C(C)C)C1=CC(=O)c2c(O)ccc(O)c2C1=O)NC(=O)CCCC[C@@H]1CCSC(c2ccc(OC)cc2)S1 (stereo partly specified)", 2.81),
]

Exercise: Field request: IC50 | item: COC(=O)[C@H](CS[C@H](CC=C(C)C)C1=CC(=O)c2c(O)ccc(O)c2C1=O)NC(=O)CCCC[C@@H]1CCSC(c2ccc([N+](=O)[O-])cc2)S1 (stereo partly specified)
Key: 5.34
